Kd listing for selected binders.
# Tested System: T1, recombinant human HER3 (human, UniProt P21860 20-643)
# T1 construct: Bought reagent
# Assay Notes: SPR (Biacore T200), HER3 captured via anti-His, Fab analyte;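 note: single cycle kinetics with five Fab concentrations, referenced against a blank flow cell and mock-buffer injections, sensorgrams fit to a 1:1 binding model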
Record the value in nM, omitting the unit from your answer.

Binder	Kd [nM]
H3 designed Vlambda-Ckappa chimeric Fab, design 33 (E83I_D85T_T105E) (Fab, name in Kabat numbering, V domains shown) VH: QVQLQESGGGLVKPGGSLRLSCAASGFTFSSYWMSWVRQAPGKGLEWVANINRDGSASYYVDSVKGRFTISRDDAKNSLYLQMNSLRAEDTAVYYCARDRGVGYFDLWGRGTLVTVSS VL: QSALTQPASVSGSPGQSITISCTGTSSDVGGYNFVSWYQQHPGKAPKLMIYDVSDRPSGVSDRFSGSKSGNTASLIISGLQADDIATYYCSSYGSSSTHVIFGGGTKVEVLR	89
H3 designed Vlambda-Ckappa chimeric Fab, design 38 (E83A_D85T_T105E) (Fab, name in Kabat numbering, V domains shown) VH: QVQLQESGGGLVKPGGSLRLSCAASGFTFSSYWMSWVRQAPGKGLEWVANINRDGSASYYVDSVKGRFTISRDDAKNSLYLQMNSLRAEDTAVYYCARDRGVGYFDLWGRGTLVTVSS VL: QSALTQPASVSGSPGQSITISCTGTSSDVGGYNFVSWYQQHPGKAPKLMIYDVSDRPSGVSDRFSGSKSGNTASLIISGLQADDAATYYCSSYGSSSTHVIFGGGTKVEVLR	72.2

As a next step, examine the binder that follows.
I am curious: what Kd value has been reported for H3 designed Vlambda-Ckappa chimeric Fab, design 19 (E83F_D85V_T105E) (Fab, name in Kabat numbering, V domains shown) VH: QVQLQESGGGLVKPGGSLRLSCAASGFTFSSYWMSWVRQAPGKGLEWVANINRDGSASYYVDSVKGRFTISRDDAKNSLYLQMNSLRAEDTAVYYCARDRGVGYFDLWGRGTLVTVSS VL: QSALTQPASVSGSPGQSITISCTGTSSDVGGYNFVSWYQQHPGKAPKLMIYDVSDRPSGVSDRFSGSKSGNTASLIISGLQADDFAVYYCSSYGSSSTHVIFGGGTKVEVLR ? 83
